- experiment description: Stability of the compound in PBS assessed as parent compound remaining at pH 5.5 after 24 hrs by HPLC-UV analysis
- Assay type: physicochemical
- conditions used: read-out: Stability

# smiles repr, remaining at 24 h
measured = [
    ("O=C(N/N=C/c1ccc2no[n+]([O-])c2c1)c1ccncc1", "67%"),
]

###

Measured MIC90 values are reported for all entries that follow.
- Test system: Mycobacterium tuberculosis
- experiment description: Antitubercular activity against replicating stage Mycobacterium tuberculosis H37Rv ATCC 27294 after 7 days by Resazurin microtiter assay
- Type: functional
- conditions used: H37Rv ATCC 27294, 168 h

# smiles repr, measured target, MIC90
records = [
    ("NC(=O)c1c(COc2cccc(/C=N/NC(=O)c3ccncc3)c2)no[n+]1[O-]", "Mycobacterium tuberculosis", "0.4 µM"),
    ("COc1ccc(-c2c(C#N)[n+]([O-])c3cc(C4OCCO4)ccc3[n+]2[O-])cc1", "Mycobacterium tuberculosis", "12 µM"),
    ("O=C(N/N=C/c1ccc2no[n+]([O-])c2c1)c1ccc(O)cc1", "Mycobacterium tuberculosis", "> 62 µM"),
]

###

- experiment description: Stability of the compound in PBS assessed as parent compound remaining at pH 7.4 after 24 hrs by HPLC-UV analysis
- Format: physicochemical
- conditions used: read-out: Stability

# smiles repr, remaining at 24 h
measured = [
    ("O=C(N/N=C/c1ccc2no[n+]([O-])c2c1)c1ccncc1", "75%"),
]

###

- experiment description: n-Octanol/water partition coefficient, log P of the compound by HPLC analysis
- Assay type: physicochemical
// No strictly below 2 in logP; Yes otherwise

# smiles repr, label class
records = [
    ("N#Cc1c(-c2ccc(F)cc2)[n+]([O-])c2ccc(C3OCCO3)cc2[n+]1[O-]", "No"),
    ("O=C(N/N=C/c1ccc2no[n+]([O-])c2c1)c1ccccc1", "Yes"),
    ("O=C(N/N=C/c1ccc2no[n+]([O-])c2c1)c1ccccc1O", "No"),
    ("N#Cc1c(-c2ccc(Cl)cc2)[n+]([O-])c2ccc(C3OCCO3)cc2[n+]1[O-]", "No"),
    ("O=C(N/N=C/c1ccc2no[n+]([O-])c2c1)c1ccc([N+](=O)[O-])cc1", "No"),
    ("O=C(N/N=C/c1ccc2no[n+]([O-])c2c1)c1cccc(O)c1", "No"),
    ("O=C(N/N=C/c1ccc2no[n+]([O-])c2c1)c1ccc(O)cc1", "No"),
    ("O=C(N/N=C/c1ccc2no[n+]([O-])c2c1)c1ccncc1", "No"),
    ("N#Cc1c(-c2cccs2)[n+]([O-])c2ccc(C3OCCO3)cc2[n+]1[O-]", "No"),
    ("COc1ccc(-c2c(C#N)[n+]([O-])c3cc(C4OCCO4)ccc3[n+]2[O-])cc1", "No"),
    ("N#Cc1c(-c2ccc(OC(F)(F)F)cc2)[n+]([O-])c2ccc(C3OCCO3)cc2[n+]1[O-]", "Yes"),
    ("CC(C)(C)c1ccc(C(=O)N/N=C/c2ccc3no[n+]([O-])c3c2)cc1", "Yes"),
    ("NC(=O)c1c(COc2ccccc2/C=N/NC(=O)c2ccncc2)no[n+]1[O-]", "No"),
    ("Cc1ccc(-c2c(C#N)[n+]([O-])c3cc(C4OCCO4)ccc3[n+]2[O-])cc1", "No"),
    ("N#Cc1c(-c2ccccc2)[n+]([O-])c2ccc(C3OCCO3)cc2[n+]1[O-]", "No"),
    ("Nc1cccc(C(=O)N/N=C/c2ccc3no[n+]([O-])c3c2)c1", "No"),
    ("N#Cc1c(-c2ccccc2)[n+]([O-])c2ccc(/C=N/NC(=O)c3ccncc3)cc2[n+]1[O-]", "No"),
    ("NC(=O)c1c(COc2cccc(/C=N/NC(=O)c3ccncc3)c2)no[n+]1[O-]", "No"),
    ("NC(=O)c1c(COc2ccc(/C=N/NC(=O)c3ccncc3)cc2)no[n+]1[O-]", "No"),
    ("Nc1ccc(C(=O)N/N=C/c2ccc3no[n+]([O-])c3c2)cc1", "No"),
]

###

- measured target: Cytochrome P450 2C8 (Homo sapiens, UniProt P10632)
- Sequence (P10632 whole entry): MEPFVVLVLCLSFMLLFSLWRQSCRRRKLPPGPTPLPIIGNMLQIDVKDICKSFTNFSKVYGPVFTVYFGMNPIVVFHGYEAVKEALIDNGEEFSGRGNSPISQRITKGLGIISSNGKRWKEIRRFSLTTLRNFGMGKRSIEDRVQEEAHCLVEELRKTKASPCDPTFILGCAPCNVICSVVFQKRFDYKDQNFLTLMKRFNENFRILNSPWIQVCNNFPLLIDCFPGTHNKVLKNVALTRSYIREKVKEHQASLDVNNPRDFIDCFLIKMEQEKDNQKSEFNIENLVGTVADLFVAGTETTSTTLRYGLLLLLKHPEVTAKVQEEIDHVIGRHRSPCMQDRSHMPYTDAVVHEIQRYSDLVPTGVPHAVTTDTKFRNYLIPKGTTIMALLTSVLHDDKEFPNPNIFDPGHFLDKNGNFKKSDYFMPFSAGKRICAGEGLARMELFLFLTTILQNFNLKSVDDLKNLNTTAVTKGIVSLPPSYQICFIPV
pIC50: −log10 of the molar value.

# smiles repr, pIC50
measured = [
    ("O=C(N/N=C/c1ccc2no[n+]([O-])c2c1)c1ccncc1", "< 4.70"),
]

###

- experiment description: Chemical stability in PBS at pH 7.4 assessed as drug degradation after 10 hrs by HPLC-UV analysis
- Assay type: physicochemical
- conditions used: read-out: Drug degradation
reported property: degraded at 10 h (%)

# smiles repr, reported property, units text, quantitative result
rows = [
    ("O=C(N/N=C/c1ccc2no[n+]([O-])c2c1)c1ccncc1", "degraded at 10 h", "%", 20),
]

###

The following compounds are shown together with reported MIC90 values.
- Test system: Mycobacterium tuberculosis
- experiment description: Antitubercular activity against replicating stage Mycobacterium tuberculosis H37Rv ATCC 27294 after 7 days by Resazurin microtiter assay
- Assay type: functional
- conditions used: H37Rv ATCC 27294, 168 h

# smiles repr, measured target, reading qualifier, MIC90 [µM]
measured = [
    ("NC(=O)c1c(COc2ccc(/C=N/NC(=O)c3ccncc3)cc2)no[n+]1[O-]", "Mycobacterium tuberculosis", "=", 0.43),
    ("CC(C)(C)c1ccc(C(=O)N/N=C/c2ccc3no[n+]([O-])c3c2)cc1", "Mycobacterium tuberculosis", "=", 3.9),
    ("Nc1cccc(C(=O)N/N=C/c2ccc3no[n+]([O-])c3c2)c1", "Mycobacterium tuberculosis", "=", 17.8),
    ("O=C(N/N=C/c1ccc2no[n+]([O-])c2c1)c1ccccc1O", "Mycobacterium tuberculosis", ">", 62),
    ("Cc1ccc(-c2c(C#N)[n+]([O-])c3cc(C4OCCO4)ccc3[n+]2[O-])cc1", "Mycobacterium tuberculosis", "=", 16.5),
    ("NNC(=O)c1ccncc1", "Mycobacterium tuberculosis", "=", 0.1),
    ("Nc1ccc(C(=O)N/N=C/c2ccc3no[n+]([O-])c3c2)cc1", "Mycobacterium tuberculosis", "=", 10.7),
    ("O=C(N/N=C/c1ccc2no[n+]([O-])c2c1)c1ccccc1", "Mycobacterium tuberculosis", "=", 8.3),
    ("N#Cc1c(-c2ccc(OC(F)(F)F)cc2)[n+]([O-])c2ccc(C3OCCO3)cc2[n+]1[O-]", "Mycobacterium tuberculosis", "=", 15.4),
    ("N#Cc1c(-c2ccc(Cl)cc2)[n+]([O-])c2ccc(C3OCCO3)cc2[n+]1[O-]", "Mycobacterium tuberculosis", "=", 16.2),
]

###

- experiment description: Selectivity index, ratio of IC50 for human MRC5 cells to IC50 for replicating stage Mycobacterium tuberculosis H37Rv ATCC 27294
- Assay type: toxicity
- conditions used: read-out: Selectivity Index

# smiles repr, selectivity ratio
data = [
    ("Nc1ccc(C(=O)N/N=C/c2ccc3no[n+]([O-])c3c2)cc1", 78.9),
    ("N#Cc1c(-c2ccc(Cl)cc2)[n+]([O-])c2ccc(C3OCCO3)cc2[n+]1[O-]", 0.8),
    ("N#Cc1c(-c2ccccc2)[n+]([O-])c2ccc(C3OCCO3)cc2[n+]1[O-]", 0.9),
    ("COc1ccc(-c2c(C#N)[n+]([O-])c3cc(C4OCCO4)ccc3[n+]2[O-])cc1", 1.2),
    ("N#Cc1c(-c2cccs2)[n+]([O-])c2ccc(C3OCCO3)cc2[n+]1[O-]", 1.4),
    ("CC(C)(C)c1ccc(C(=O)N/N=C/c2ccc3no[n+]([O-])c3c2)cc1", 6.3),
    ("N#Cc1c(-c2ccccc2)[n+]([O-])c2ccc(/C=N/NC(=O)c3ccncc3)cc2[n+]1[O-]", 0.5),
    ("NC(=O)c1c(COc2ccc(/C=N/NC(=O)c3ccncc3)cc2)no[n+]1[O-]", 2700),
    ("NC(=O)c1c(COc2cccc(/C=N/NC(=O)c3ccncc3)c2)no[n+]1[O-]", 3200),
    ("N#Cc1c(-c2ccc(OC(F)(F)F)cc2)[n+]([O-])c2ccc(C3OCCO3)cc2[n+]1[O-]", 4.3),
    ("Cc1ccc(-c2c(C#N)[n+]([O-])c3cc(C4OCCO4)ccc3[n+]2[O-])cc1", 1.1),
    ("Nc1ccccc1C(=O)N/N=C/c1ccc2no[n+]([O-])c2c1", 9.9),
    ("NC(=O)c1c(COc2ccccc2/C=N/NC(=O)c2ccncc2)no[n+]1[O-]", 2030),
    ("N#Cc1c(-c2ccc(F)cc2)[n+]([O-])c2ccc(C3OCCO3)cc2[n+]1[O-]", 0.9),
    ("Nc1cccc(C(=O)N/N=C/c2ccc3no[n+]([O-])c3c2)c1", 4.6),
    ("N#Cc1c(-c2ccco2)[n+]([O-])c2ccc(C3OCCO3)cc2[n+]1[O-]", 6.8),
    ("O=C(N/N=C/c1ccc2no[n+]([O-])c2c1)c1ccccc1", 15.6),
]

This collection of values is drawn from ChEMBL document CHEMBL4028867.
